Molecular target: T1, CD24-GST fusion protein
T1 chain: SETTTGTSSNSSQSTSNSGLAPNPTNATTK
Assay: competitive ELISA
Known IC50 of a selection of binders

These recorded examples may help you get a feel for the data.
PP6235 (antibody, V domains shown) VH: EVKFEESGGGLVQPGGSIKLSCAASGVAFSGAWMDWVRQSPEKGLEWVAEIRDKTKNYVTYYAESVKGRFTISRDDSKSRVYLQMNNLRTEDTGVYYCTGAMDYWGQGTSVTVSS VL: DIVMTQTPLSLSVTIGQPASISCKSSQSLLYSNGKTYLNWLQQRPGQSPKRLIYQVSKLDPGIPDRFSGSGSETDFTLKISRVEAEDLGIYYCMQGASLPWTFGGGTKLEIKR: 0.0415 mg/L
PP6372 (antibody, V domains shown) VH: EVKFEESGGGLVQPGGSIKLSCAASGVTFSEAWMDWVRQSPEKGLEWVAEIRDKQNEYVTYYAESVKGRFTISRDDSKSRVYLQMNNLRTEDTGIYYCTGAMDYWGQGTSVTVSS VL: DIVMTQTPLSLSVTIGQPASISCKSSQSLLYSNGKTYLNWLQQRPGQSPKRLIYQVSKLDPGIPDRFSGSGSETDFTLKISRVEAEDLGIYYCMQGSSLPWTFGGGTKLEIKR: 0.0268 mg/L
PP6387 (antibody, V domains shown) VH: EVKFEESGGGLVQPGGSIKLSCAASGVTFSEAWMDWVRQSPEKGLEWVAEIRDKTKNYVTYYAESVKGRFTISRDDSKGRVYLQMNNLRTEDTGIYYCTGAMDYWGQGTSVTVSS VL: DIVMTQTPLSLSVTIGQPASISCKSSQSLLYSNGKTYLNWLQQRPGQSPKRLIYQVSKLDPGIPDRFSGSGSETDFTLKISRVEAEDLGIYYCMQGSSLPWTFGGGTKLEIKR: 0.0284 mg/L

## Input Form field: reported IC50 of PP6226 (antibody, V domains shown) VH: EVKFEESGGGLVQPGGSIKLSCAASGVTFSEAWMDWVRQSPEKGLEWVAEIRDKTKNYVTYYAESVKGRFTISRDDSKSRVYLQMNNLRTEDTGIYYCTGAMDYWGQGTSVTVSS VL: DIVMTQTPLSLSVTIGQPASISCKSSQSLLYSNGKTYLNWLQQRPGQSPKRLIYQVSKLDPGIPDRFSGSGSETDFTLKISRVEAEDLGIYYCLQGTSYPWTFGGGTKLEIKR
## Output 0.0834 mg/L

## Input Form field: reported IC50 of PP6373 (antibody, V domains shown) VH: EVKFEESGGGLVQPGGSIKLSCAASGVTFSEAWMDWVRQSPEKGLEWVAEIRDKPNSYVTYYAESVKGRFTISRDDSKSRVYLQMNNLRTEDTGIYYCTGAMDYWGQGTSVTVSS VL: DIVMTQTPLSLSVTIGQPASISCKSSQSLLYSNGKTYLNWLQQRPGQSPKRLIYQVSKLDPGIPDRFSGSGSETDFTLKISRVEAEDLGIYYCMQGSSLPWTFGGGTKLEIKR
## Output 0.0207 mg/L

## Input Form field: reported IC50 of PP6388 (antibody, V domains shown) VH: EVKFEESGGGLVQPGGSIKLSCAASGVTFSEAWMDWVRQTPEKGLEWVAEIRDRETKYVTYYAESVKGRFTISRDDSKSRVYLQMNNLRTEDTGIYYCTGAMDYWGQGTSVTVSS VL: DIVMTQTPLSLSVTIGQPASISCKSSQSLLYSNGKTYLNWLQQRPGQSPKRLIYQVSKLDPGIPDRFSGSGSETDFTLKISRVEAEDLGIYYCMQGTYLPWTFGGGTKLEIKR
## Output 0.0249 mg/L
